Reported values of melting point for individual entries

Cc1cc(F)c(Nc2c(-c3ccc(F)cc3Cl)c(C)nn2C)c(Cl)c1 [Compound 12] : 137 to 138 °C

Entry under review: Cc1cc(Cl)c(Nc2c(-c3ccc(F)cc3F)c(C)nn2C)c(Cl)c1 [Compound 16] . Reported melting point? 147 to 149 °C

Entry under review: Cc1cc(F)c(Nc2c(-c3ccc(F)cc3Cl)c(C)nn2C)c(Br)c1 [Compound 1] . Reported melting point? 132 to 133 °C

Entry under review: Cc1cc(F)c(Nc2c(-c3ccc(F)cc3Br)c(C)nn2C)c(Cl)c1 [Compound 11] . Reported melting point? 145 to 146 °C
